Target: T1, BmERR DBD (Bombyx mori, UniProt A0A1B1M0R7 103-178)
T1 sequence: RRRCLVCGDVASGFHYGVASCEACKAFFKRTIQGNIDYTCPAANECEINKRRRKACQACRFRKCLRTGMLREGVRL
Assay: EMSA; EMSA, Beyotime kit buffer (composition not given), 25 °C 25 min; 5% native PAGE in 1x TBE (45 mM Tris-borate, 1 mM EDTA, pH 8.3)
Conditions: protein: recombinant; label: biotin 3'; blunt

# Binder, binding result
records = [
    ("Akr2e CRE2 (dsDNA) DNA 1: ACTAGTTAAGGTTACGCTGA DNA 2: TCAGCGTAACCTTAACTAGT", "binds"),
    ("FAH CRE1 (dsDNA) DNA 1: TTTTTCCAAGGACGTTTGAG DNA 2: CTCAAACGTCCTTGGAAAAA", "binds"),
    ("Acyl CRE1 (dsDNA) DNA 1: TATATTGCCCTTGTAAGT DNA 2: ACTTACAAGGGCAATATA", "binds"),
]
